Data provenance: patent US20260242478A1

- target-entity: T1, PSMA Fab
- T1 construct: also called Anti-PSMA Fab; 006 PSMA Fab
- assay-info: phage ELISA, biotinylated PSMA Fab on neutravidin plate, bound phage detected with anti-M13-HRP
measurement-label: Phage binding ELISA signal, Anti-PSMA Fab
Answers are plain numbers.

FGISCTPSWMCEGF [Phage-2398]    1.37

For each of the binders below, note its Phage binding ELISA signal, Anti-PSMA Fab.
1. EVKWCIPEWMCMVV [Phage-2396]
2. HTTWCTPAWMCQGF [Phage-2404]
3. MQHWCVPPWMCQSL [Phage-2401]
4. VFHLCMPPWMCSQD [Phage-2390]
5. VVKWCTPAWMCELQ [Phage-2397]

1. 1.37
2. 1.36
3. 1.37
4. 1.38
5. 1.37

I would be grateful if you could provide Phage binding ELISA signal, Anti-PSMA Fab for each of the following entries.
1. ASMWCIPPWMCAED [Phage-2395]
2. WEKWCTPAWMCAVA [Phage-2399]
3. DVRWCTPPWMCVAM [Phage-2400]

1: 1.37; 2: 1.37; 3: 1.37
